# Test system: G. lamblia trophozoites (luciferase expressing, WBC6)
# Experiment summary: microbe, parasite or virus in culture
# Type: cell-based, Giardia lamblia
# Experimental conditions: initial Pathogen Box screen, single concentration 16 µM, inhibition compared to DMSO wells
Returns t if the recorded Giardia (16 uM) Mean % inhibition is greater than or equal to 30%, and f otherwise.

Task: Does Giardia (16 uM) Mean % inhibition meet or surpass 30% for CC1COC(Cn2cncn2)(c2ccc(Oc3ccc(Cl)cc3)cc2Cl)O1 (stereo not drawn) [MMV688943] ?
Output: t

Task: Quick check, Giardia (16 uM) Mean % inhibition >= 30%? COc1ccc(C2CC(c3cccs3)=NN2C(=O)c2ccco2)cc1OC (stereo not drawn) [MMV019234]
Output: f

Task: Can Cc1cc(C2=NOC(c3cc(Cl)c(F)c(Cl)c3)(C(F)(F)F)C2)ccc1C(=O)NCc1ccc2c(c1)C(C)(C)OB2O (stereo not drawn) [MMV687776] be said to have Giardia (16 uM) Mean % inhibition at or above 30%?
Output: f

---

# System: G. lamblia trophozoites (luciferase expressing, WBC6)
# Experiment summary: microbe, parasite or virus in culture
# Format: cell-based, Giardia lamblia
# Experimental conditions: initial Pathogen Box screen, single concentration 16 µM, inhibition compared to DMSO wells
Record y whenever Giardia (16 uM) Mean % inhibition is at 80% or higher; record n when lower.

Worked examples, 3 compounds total:
O=C1[C@@H](Oc2ccccc2)[C@@H](c2ccc(Cl)cc2)N1CCn1cnc2c(NCc3ccccc3)ncnc21 [MMV688352]
n
O=C(Nc1cccnc1)c1c(O)c2cccc3c2n(c1=O)CC3 [MMV676395]
y
CC(C)(C)c1cnc(NC(=O)c2ccccc2O)s1 [MMV495543]
y

Task: Is Giardia (16 uM) Mean % inhibition at least 80%? Consider O=C(NC1CCCCC1)N1CCN(Cc2ccc3c(c2)OCO3)CC1 [MMV676444]
Output: n

Task: Giardia (16 uM) Mean % inhibition >= 80% for CC1CCCCN1C(=O)NCCc1coc(-c2ccc(F)cc2)n1 (stereo not drawn) [MMV688797] ?
Output: n

Task: Does Giardia (16 uM) Mean % inhibition meet or surpass 80% for CCCCOC(=O)Nc1cc2[nH]c(C3CCCCC3)nc2cc1N1CCCC1 [MMV687730] ?
Output: n

Task: Check this compound for Giardia (16 uM) Mean % inhibition at or above 80%: CCC(Sc1nc2ccccc2o1)C(=O)Nc1nccs1 (stereo not drawn) [MMV676383]
Output: y

---

# System: G. lamblia trophozoites (luciferase expressing, WBC6)
# Experiment summary: microbe, parasite or virus in culture
# Assay type: cell-based, Giardia lamblia
# Experimental conditions: initial Pathogen Box screen, single concentration 16 µM, inhibition compared to DMSO wells
Recorded endpoint: Giardia (16 uM) Mean % inhibition (%)
Respond numerically; units are % and should not be typed.

Task: # query: Giardia (16 uM) Mean % inhibition of entry O=C([C@@H](c1ccc(Cl)cc1)c1cccnc1)N1CCN(c2ccc(C(F)(F)F)cc2)CC1
Output: 33

Task: Entry under review: COc1cccc(-c2nc3c(N4CCCC4)cccc3n2CC2CCCN2)n1 (stereo not drawn) . Reported Giardia (16 uM) Mean % inhibition?
Output: 26

Task: State the recorded Giardia (16 uM) Mean % inhibition for this entry: Cc1cc2nc(NC(=O)C(C)(C)C)nc(Cl)c2n1Cc1ccc(Cl)cc1
Output: 42

Task: Suppose we examine the compound NC(=O)c1cc(Br)ccc1OCCOc1ccccc1 ; what Giardia (16 uM) Mean % inhibition value has been reported?
Output: 66

Task: For the compound shown here, CCCn1c(CNc2ccccc2O)nc2ccccc21 , give the reported Giardia (16 uM) Mean % inhibition.
Output: 13

Task: Given the compound Cc1nc2ccccn2c1C(=O)NCc1ccc(Cl)cc1 , what is its reported Giardia (16 uM) Mean % inhibition?
Output: 14

Task: Form field: reported Giardia (16 uM) Mean % inhibition of O=C(CN1CCOCC1)Nc1ccc2ncnc(Nc3ccc(OCc4cccc(F)c4)c(Cl)c3)c2c1
Output: 26

Task: What Giardia (16 uM) Mean % inhibition value was documented for this compound, COc1cc(N[C@@H](C)CCCN)c2ncccc2c1 ?
Output: 47

Task: Need Giardia (16 uM) Mean % inhibition of C[C@H](c1ccc2c(c1)CCCC2)N(C)c1ncc2c(N)nc(N)nc2n1 , thanks.
Output: 49

Task: // Giardia (16 uM) Mean % inhibition lookup, key: Cc1ccccc1C(=O)N1NC(=Nc2ccccc2)SC1(C)C
Output: 51
